Cited source: patent US20260297129A1

Assay: Protease stability in simulated intestinal fluids (FaSSIF) (Table 7)
Type: in vitro ADME
Details: fassif with pancreatin, 60 min, 37° C., read-out: Remaining percentage of peptide compound, FaSSIF 60 (min)
Numbered stars: 1 amine (or outer) side, 2 acyl side, 3 side chain; on linkers, the order of the positions; unused ones are H or OH. Bridge positions count the residues as written; N and C are the ends. Square brackets hold non-standard residues; d marks the D form. Peptide text beside a SMILES is read from it. * marks the point of attachment. Lys(Me,(CH2)4NMe(CH2)5CO) = CN(CCCCCC(=O)[*:3])CCCCN(C)CCCC[C@H](N[*:1])C(=O)[*:2]; Lys(Me,(CH2)4NMe(CH2)4CO) = CN(CCCCC(=O)[*:3])CCCCN(C)CCCC[C@H](N[*:1])C(=O)[*:2]; X3 = Cc1cccc2c(C[C@H](N[*:1])C(=O)[*:2])cn(C)c12; Trp(7-Me) = Cc1cccc2c(C[C@H](N)C(=O)O)c[nH]c12; NH(2-(3-pyridyl)ethyl) = c1cncc(CCN*)c1; αMeLys(Me2) = CN(C)CCCC[C@](C)(N)C(=O)O; 2Nal = N[C@@H](Cc1ccc2ccccc2c1)C(=O)O; C12 diacid = O=C(O)CCCCCCCCCCC(=O)*; 3Pal = N[C@@H](Cc1cccnc1)C(=O)O; Thp = NC1(C(=O)O)CCOCC1; Me2NCH2CH2 = CN(C)CC*; Aib = CC(C)(N)C(=O)O; Sar = CNCC(=O)O
Attribute: remaining at 1 h, 1 µM
Kindly provide the numeric value in % only, without the unit symbol.

Reference set (4 entries):
CC(=O)NCCCC[C@@H]1NC(=O)[C@H](Cc2c[nH]c3c(C)cccc23)NC(=O)CCCCCN(C)CCCCN(C)CCCC[C@@H](C(=O)N[C@@H](CC(N)=O)C(=O)N[C@@H](Cc2cccnc2)C(=O)N(C)CC(N)=O)NC(=O)[C@](C)(CCCCN(C)C)NC(=O)[C@H](Cc2ccc3ccccc3c2)NC(=O)[C@H](Cc2ccc(OCCN(C)C)cc2)NC(=O)C2(CCOCC2)NC1=O [compound 34] ([Trp(7-Me)]K(Ac)[Thp]Y(Me2NCH2CH2)[2Nal][αMeLys(Me2)][Lys(Me,(CH2)4NMe(CH2)5CO)]N[3Pal][Sar]-NH2; lactam N-7) : 98
Cc1cccc2c(C[C@@H]3NC(=O)CCCCCCCCCCC(=O)NCCCC[C@@H](C(=O)N[C@@H](CC(N)=O)C(=O)N[C@@H](Cc4cccnc4)C(=O)N(C)CC(N)=O)NC(=O)C(C)(C)NC(=O)[C@H](Cc4ccc5ccccc5c4)NC(=O)[C@H](Cc4ccc(OCCN(C)C)cc4)NC(=O)C4(CCOCC4)NC(=O)[C@H](CCC(N)=O)NC3=O)c[nH]c12 [compound 10] ([Trp(7-Me)]Q[Thp]Y(Me2NCH2CH2)[2Nal][Aib]KN[3Pal][Sar]-NH2; linker N-7 via C12 diacid) : 79
Cc1cccc2c(C[C@@H]3NC(=O)CCCCCN(C)CCCCN(C)CCCC[C@@H](C(=O)NCC(=O)N[C@@H](Cc4cccnc4)C(=O)N(C)CC(N)=O)NC(=O)C(C)(C)NC(=O)[C@H](Cc4ccc5ccccc5c4)NC(=O)[C@H](Cc4ccc(OCCN(C)C)cc4)NC(=O)C4(CCOCC4)NC(=O)[C@H](CCC(N)=O)NC3=O)c[nH]c12 [compound 26] ([Trp(7-Me)]Q[Thp]Y(Me2NCH2CH2)[2Nal][Aib][Lys(Me,(CH2)4NMe(CH2)5CO)]G[3Pal][Sar]-NH2; lactam N-7) : 92
Cc1cccc2c(C[C@@H]3NC(=O)CCCCCN(C)CCCCN(C)CCCC[C@@H](C(=O)N[C@@H](CC(N)=O)C(=O)N[C@@H](Cc4cccnc4)C(=O)N(C)CC(N)=O)NC(=O)C(C)(C)NC(=O)[C@H](Cc4ccc5ccccc5c4)NC(=O)[C@H](Cc4ccc(OCCN(C)C)cc4)NC(=O)C4(CCOCC4)NC(=O)[C@H](CCC(N)=O)NC3=O)c[nH]c12 [compound 31] ([Trp(7-Me)]Q[Thp]Y(Me2NCH2CH2)[2Nal][Aib][Lys(Me,(CH2)4NMe(CH2)5CO)]N[3Pal][Sar]-NH2; lactam N-7) : 93

// moving on: another record for remaining at 1 h, 1 µM
Query string: Can you share its remaining at 1 h, 1 µM? I mean this molecule: Cc1cccc2c(C[C@@H]3NC(=O)CCCCN(C)CCCCN(C)CCCC[C@@H](C(=O)NCC(=O)NCCc4cccnc4)NC(=O)C(C)(C)NC(=O)[C@H](Cc4ccc5ccccc5c4)NC(=O)[C@H](Cc4ccc(OCCN(C)C)cc4)NC(=O)C4(CCOCC4)NC(=O)[C@H](CC(C)C)NC3=O)cn(C)c12 [compound 49] ([X3]L[Thp]Y(Me2NCH2CH2)[2Nal][Aib][Lys(Me,(CH2)4NMe(CH2)4CO)]G-{NH(2-(3-pyridyl)ethyl)}; lactam N-7)
Result string: 100
